Where do the numbers come from? From patent US10752587B2.

# Target: glutathione-S-transferase (GST) tagged LXRbeta LBD (ligand binding domain) (Homo sapiens)
# Construct: purchased Invitrogen pv4658.pps
# Procedure Summary: LanthaScreen TR-FRET Liver X Receptor Coactivator Assay, co-activator recruitment to LXRbeta LBD
# Type: biochemical
# Assay Setup: efficacy in relation to reference dual agonist T0901317; read-out: LXR beta Activity @ max dose
Parameter Emax: see the listing below.
Don't forget the unit after the number, please.

{"Molecule": "CN(C)C(=O)c1ccc(N2CCC(CC3CCN(S(=O)(=O)c4cc(F)cc(C(F)(F)F)c4)CC3)CC2)cc1Cl", "Target": "glutathione-S-transferase (GST) tagged LXRbeta LBD (ligand binding domain) (Homo sapiens)", "Test Result": "32%"}
{"Molecule": "CC(C)c1cccc([C@@](O)(C(=O)N2CCC(CC3CCN(c4ccc(C(N)=O)c(Cl)c4)CC3)CC2)C(F)(F)F)c1", "Target": "glutathione-S-transferase (GST) tagged LXRbeta LBD (ligand binding domain) (Homo sapiens)", "Test Result": "51%"}
{"Molecule": "CN(C)C(=O)c1ccc(N2CCC(CC3CCN(S(=O)(=O)c4cccc(F)c4)CC3)CC2)cc1Cl", "Target": "glutathione-S-transferase (GST) tagged LXRbeta LBD (ligand binding domain) (Homo sapiens)", "Test Result": "67%"}
{"Molecule": "CN(C)C(=O)c1ccc(N2CCC(CC3CCN(S(=O)(=O)c4cc(F)cc(F)c4)CC3)CC2)cc1Cl", "Target": "glutathione-S-transferase (GST) tagged LXRbeta LBD (ligand binding domain) (Homo sapiens)", "Test Result": "41%"}
{"Molecule": "CN(C)C(=O)c1ccc(N2CCC(CC3CCN(S(=O)(=O)c4cccc(Br)c4)CC3)CC2)cc1Cl", "Target": "glutathione-S-transferase (GST) tagged LXRbeta LBD (ligand binding domain) (Homo sapiens)", "Test Result": "54%"}
{"Molecule": "CN(C)C(=O)c1ccc(N2CCC(CC3CCN(S(=O)(=O)c4ccc(Cl)s4)CC3)CC2)cc1Cl", "Target": "glutathione-S-transferase (GST) tagged LXRbeta LBD (ligand binding domain) (Homo sapiens)", "Test Result": "20%"}

QUERY: Give the reported Emax for COc1cccc(S(=O)(=O)N2CC(CC3CCN(c4ccc(C(=O)N(C)C)c(Cl)n4)CC3)C2)c1 (system: glutathione-S-transferase (GST) tagged LXRbeta LBD (ligand binding domain) (Homo sapiens)).
RESULT: 93%

QUERY: Give the reported Emax for CC(C)Oc1cccc([C@@](O)(C(=O)N2CCC(CC3CCN(c4ccc(C(N)=O)c(Cl)c4)CC3)CC2)C(F)(F)F)c1 (system: glutathione-S-transferase (GST) tagged LXRbeta LBD (ligand binding domain) (Homo sapiens)).
RESULT: 33%

QUERY: Give the reported Emax for CN(C)C(=O)c1ccc(N2CCC(CC3CCN(S(=O)(=O)c4cccs4)CC3)CC2)cc1Cl (system: glutathione-S-transferase (GST) tagged LXRbeta LBD (ligand binding domain) (Homo sapiens)).
RESULT: 67%

QUERY: Give the reported Emax for COc1cccc(S(=O)(=O)N2CCC(CC3CCN(c4ccc(C(=O)N(C)C)c(Cl)c4)CC3)CC2)c1 (system: glutathione-S-transferase (GST) tagged LXRbeta LBD (ligand binding domain) (Homo sapiens)).
RESULT: 64%

QUERY: Give the reported Emax for COc1cccc(S(=O)(=O)N2CC(CC3CCN(c4ccc(C(=O)N(C)C)c(Cl)c4)CC3)C2)c1 (system: glutathione-S-transferase (GST) tagged LXRbeta LBD (ligand binding domain) (Homo sapiens)).
RESULT: 70%

QUERY: Give the reported Emax for NC(=O)c1ccc(N2CCC(CC3CCN(C(=O)C(O)(c4cc(F)cc(Cl)c4)C(F)(F)F)CC3)CC2)cc1Cl (centres unmarked) (system: glutathione-S-transferase (GST) tagged LXRbeta LBD (ligand binding domain) (Homo sapiens)).
RESULT: 98%

QUERY: Give the reported Emax for CN(C)C(=O)c1ccc(N2CCC(CC3CCN(S(=O)(=O)c4ccccc4F)CC3)CC2)cc1Cl (system: glutathione-S-transferase (GST) tagged LXRbeta LBD (ligand binding domain) (Homo sapiens)).
RESULT: 95%

QUERY: Give the reported Emax for COc1cccc(CS(=O)(=O)N2CC(CC3CCN(c4ccc(C(=O)N(C)C)c(Cl)c4)CC3)C2)c1 (system: glutathione-S-transferase (GST) tagged LXRbeta LBD (ligand binding domain) (Homo sapiens)).
RESULT: 26%

----------
# Target: glutathione-S-transferase (GST) tagged LXRbeta LBD (ligand binding domain) (Homo sapiens, UniProt P55055)
# Construct: purchased Invitrogen pv4658.pps
# Sequence (P55055 222-460 limits assumed): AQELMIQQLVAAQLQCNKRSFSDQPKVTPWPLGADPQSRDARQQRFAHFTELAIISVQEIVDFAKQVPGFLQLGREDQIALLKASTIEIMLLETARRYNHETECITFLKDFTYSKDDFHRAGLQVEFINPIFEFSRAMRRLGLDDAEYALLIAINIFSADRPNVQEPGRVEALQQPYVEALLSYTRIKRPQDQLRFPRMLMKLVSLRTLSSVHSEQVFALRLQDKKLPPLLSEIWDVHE
# Procedure Summary: LanthaScreen TR-FRET Liver X Receptor Coactivator Assay, co-activator recruitment to LXRbeta LBD
# Assay type: biochemical
# Assay Setup: efficacy at max dose, in relation to reference dual agonist T0901317; read-out: LXR beta Activity @ max dose (%)
Returns: string. Value is 1 (yes) if measured Emax is below 70%, and 0 (no) if it is greater than or equal to it.

Answered cases to consult:
{"Molecule": "CC(C)Oc1cccc([C@@](O)(C(=O)N2CC(CC3CCN(c4ccc(C(=O)N(C)C)c(Cl)n4)CC3)C2)C(F)(F)F)c1 [Example 7-42]", "Classification": "0 (no)"}
{"Molecule": "CN(C)C(=O)c1ccc(N2CCC(CC3CCN(C(=O)[C@@](O)(c4ccccc4)C(F)(F)F)CC3)CC2)nc1Cl [Example 7-62]", "Classification": "0 (no)"}
{"Molecule": "CC(C)N(C)C(=O)c1ccc(N2CCC(CC3CCN(C(=O)[C@](O)(c4ccccc4)C(F)(F)F)CC3)CC2)cc1Cl [Example 4-2]", "Classification": "0 (no)"}
{"Molecule": "O=C(c1ccc(N2CCC(CC3CCN(C(=O)[C@](O)(c4ccccc4)C(F)(F)F)CC3)CC2)cc1Cl)N1CC(F)(F)C1 [Example 4-8]", "Classification": "0 (no)"}
{"Molecule": "CCc1cccc([C@@](O)(C(=O)N2CC(CC3CCN(c4ccc(C(=O)N(C)C)c(Cl)n4)CC3)C2)C(F)(F)F)c1 [Example 7-43]", "Classification": "0 (no)"}
{"Molecule": "CN(C)C(=O)c1ccc(N2CCC(CCC3CCN(C(=O)[C@](O)(c4ccccc4)C(F)(F)F)CC3)CC2)cc1Cl [Example 2-162]", "Classification": "1 (yes)"}
{"Molecule": "CNC(=O)c1ccc(N2CCC(OC3CCN(C(=O)C(O)(c4cccc(Cl)c4)C(F)(F)F)CC3)CC2)cc1Cl (centres unmarked) [Example 7-31]", "Classification": "0 (no)"}
{"Molecule": "CCOc1cccc([C@@](O)(C(=O)N2CCC(CC3CN(c4ccc(C(=O)N(C)C)c(OC)n4)C3)CC2)C(F)(F)F)c1 [Example 7-22]", "Classification": "1 (yes)"}
{"Molecule": "CN(C)C(=O)c1ccc(N2CCC(CC3CCN(C(=O)[C@](O)(c4cccc(OCC(F)(F)F)c4)C(F)(F)F)CC3)CC2)cc1Cl [Example 2-97]", "Classification": "1 (yes)"}
{"Molecule": "CN(C)C(=O)c1ccc(N2CCC(SC3CCN(C(=O)[C@](O)(c4cc(Cl)cc(Cl)c4)C(F)(F)F)CC3)CC2)nc1Cl [Example 9-3]", "Classification": "1 (yes)"}

Please look at the following molecule next.
QUERY: Is Emax of Cc1cccc([C@@](O)(C(=O)N2CCC(CC3CCN(c4ccc(C(=O)N(C)C)c(Cl)n4)CC3)CC2)C(F)(F)F)c1 [Example 7-88] strictly below 70%?
RESULT: 1 (yes)

----------
# Target: glutathione-S-transferase (GST) tagged LXRalpha LBD (ligand binding domain) (Homo sapiens)
# Construct: purchased Invitrogen pv4655
# Sequence (Q13133 209-447 limits assumed): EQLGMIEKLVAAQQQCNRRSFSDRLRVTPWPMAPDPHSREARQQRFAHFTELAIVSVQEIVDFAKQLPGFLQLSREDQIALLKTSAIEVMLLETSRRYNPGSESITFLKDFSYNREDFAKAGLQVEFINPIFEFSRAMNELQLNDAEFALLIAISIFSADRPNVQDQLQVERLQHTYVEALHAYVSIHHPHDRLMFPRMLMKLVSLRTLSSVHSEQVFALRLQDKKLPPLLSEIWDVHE
# Procedure Summary: LanthaScreen TR-FRET Liver X Receptor Coactivator Assay, co-activator recruitment to LXRalpha LBD
# Type: biochemical
# Assay Setup: efficacy at max dose, in relation to reference dual agonist T0901317; read-out: LXR alpha Activity @ max dose (%)
Think of 30% as a floor: if Emax stands on it or above, it is Satisfied; beneath it, Not satisfied.

{"Compound": "Cc1cc(Cl)cc([C@@](O)(C(=O)N2CCC(CC3CCN(c4ccc(C(=O)N(C)C)c(Cl)c4)CC3)CC2)C(F)(F)F)c1", "Classification": "Not satisfied"}
{"Compound": "COc1cccc([C@](N)(C(=O)N2CCC(CC3CCN(c4ccc(C(=O)N(C)C)c(Cl)c4)CC3)CC2)C(F)(F)F)c1", "Classification": "Not satisfied"}
{"Compound": "CN(C)C(=O)c1ccc(N2CCC(CC3CN(C(=O)C(O)(c4cccc(Cl)c4)C(F)(F)F)C3)CC2)cc1Cl (stereo not shown)", "Classification": "Satisfied"}
{"Compound": "CN(C)C(=O)c1ccc(N2CCC(CC3CCN(C(=O)[C@@](O)(c4cccc(Cl)c4)C(F)(F)F)CC3)CC2)nc1Cl", "Classification": "Satisfied"}
{"Compound": "CN(C)C(=O)c1ccc(N2CCC(CC3CCN(C(=O)[C@](O)(c4cc(F)cc(Cl)c4)C(F)(F)F)CC3)CC2)nc1Cl", "Classification": "Satisfied"}
{"Compound": "CN(C)C(=O)c1ccc(N2CCC(CC3CCN(C(=O)C(C)(C)c4ccccc4)CC3)CC2)cc1Cl", "Classification": "Not satisfied"}

QUERY: Entry CN(C)C(=O)c1ccc(N2CCC(CC3CCN(C(=O)[C@@](O)(c4ccccc4)C(F)(F)F)CC3)CC2)nc1Cl : is its Emax no less than 30%?
RESULT: Satisfied
